Hey, just so you know, these numbers are from the PETadex activity labels (doi:10.1002/cbic.201800097).

- Substrate: BHET
- Assay comment: Proxy for plastic degradation [Released monomer concentration (HPLC/LC-MS) (MHET+TPA)]
- Condition summary: pH 7.5
Measurement label: Proxy for plastic degradation (µM)
All answers are understood in µM, so give the number only.

**Query** Recall and state the measured Proxy for plastic degradation for unnamed (protein) MNFPRASRLMQAAVLGGLMAVSAAATAQTNPYARGPNPTAASLEASAGPFTVRSFTVSRPSGYGAGTVYYPTNAGGTVGAIAIVPGYTARQSSIKWWGPRLASHGFVVITIDTNSTLDQPSSRSSQQMAALRQVASLNGTSSSPIYGKVDTARMGVMGWSMGGGGSLISAANNPSLKAAAPQAPWDSSTNFSSVTVPTLIFACENDSIAPVASSALPIYDSMSRNAKQFLEINGGSHSCANSGNSNQALIGKKGVAWMKRFMDNDTRYSTFACENPNSTRVSDFRTANCS .
**Result** 0.42

**Query** Recall and state the measured Proxy for plastic degradation for unnamed (protein) MNFPRASRLMQAAVLGGLMAVSAAATAQTNPYARGPNPTAASLEASAGPFTVRSFTVSRPSGYGAGTVYYPTNAGGTVGAIAIVPGYTARQSSIKWWGPRLASHGFVVITIDTNSTLDQPSSRSSQQMAALRQVASLNGTSSSPIYGKVDTARMGVMGWSMGGGGSLISAANNPSLKAAIPQAPWDSSTNFSSVTVPTLIFACENDSIAPVNSSALPIYDSMSRNAKQFLEINGGSHSCANSGNSNQALIGKKGVAWMKRFMDNDTRYSTFACENPNSTRVSDFRTANCS .
**Result** 0.31
